Target: GPX4 (Homo sapiens, UniProt P36969)
Sequence (P36969 28-197): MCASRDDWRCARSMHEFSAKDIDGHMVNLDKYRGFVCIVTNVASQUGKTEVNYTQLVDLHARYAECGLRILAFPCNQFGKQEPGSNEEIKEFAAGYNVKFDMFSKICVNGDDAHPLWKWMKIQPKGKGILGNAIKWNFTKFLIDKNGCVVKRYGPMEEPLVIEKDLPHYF
Assay: GPX4 activity assay in cell lysates (NADPH-coupled)
Type: biochemical
Set-up: endogenous in cells; host or cells: A-673 cell lysate
Conditions: 2.5 μM
Catalogue of GPX4% inhibition at 2.5 μM values
Could you kindly put the unit after your number?

# compound, GPX4% inhibition at 2.5 μM
measured = [
    ("CC(OC(=O)CCl)C(C)(C)NC(=O)c1nn(C)c2cc(-c3ccc(N4CCOCC4)c(Cl)c3)ccc12 (racemic)", "86.4 ± 7.3%"),
    ("Cn1nc(-c2nnc(C(C)(OC(=O)CCl)C(F)(F)F)o2)c2ccc(-c3ccc4c(c3)OCO4)cc21 (stereo not drawn)", "−49.5 ± 28.5%"),
]

Shifting focus to the compound that follows.
-- ask Notebook: pull reported GPX4% inhibition at 2.5 μM for GPX4 (Homo sapiens, UniProt P36969), entry CCOCCOc1ccc(-c2ccc3c(C(=O)NC(C)(C)COC(=O)CCl)nn(C)c3c2)cc1
-- reply 60.9 ± 15.7%

* * *

Catalogue of Plasma Stability t1/2 (min) human values
Give just the number in min; leave the unit off.

# compound, measured-endpoint, uom, measured-result
rows = [
    ("COc1ccc(-c2ccc3c(C(=O)NC(C)(C)C(C)(C)OC(=O)CCl)nn(C)c3c2)cc1Cl", "Plasma Stability t1/2 (min) human", "min", 318),
    ("COc1ccc(-c2ccc3c(C(=O)NC(C)(C)CNC(=O)CCl)nn(C)c3c2)cc1Cl", "Plasma Stability t1/2 (min) human", "min", 243),
]

-- ask Name the reported Plasma Stability t1/2 (min) human value associated with the compound CC(OC(=O)CCl)C(C)(C)NC(=O)c1nn(C)c2cc(-c3ccc(N4CCOCC4)c(Cl)c3)ccc12 (racemic)
-- reply 275

-- ask Name the reported Plasma Stability t1/2 (min) human value associated with the compound Cn1nc(C(=O)NC(C)(C)CNC(=O)CCl)c2ccc(Br)cc21
-- reply 142

* * *

Tested on: HT-1080 cells
Test: Cellular dose response assay, HT-1080 with and without Fer-1
Assay type: cell-based, human
Details: HT1080, without Fer-1; read-out: IC50 (uM) HT1080
measured-endpoint: IC50 (µM)
Give just the number in µM; leave the unit off.

Observe how each entry below is paired with its result.
# molecule, measured-result
rows = [
    ("CCOc1ccc(-c2ccc3c(C(=O)NC(C)(C)COC(=O)CCl)nn(C)c3c2)cc1Cl [QW-655]", 0.7),
    ("COc1c(F)cc(-c2ccc3c(C(=O)NC(C)(C)C(C)(C)OC(=O)CCl)nn(C)c3c2)cc1Cl [QW-796]", 2.4),
    ("COc1c(Cl)cc(-c2ccc3c(C(=O)NC(C)(C)C(C)(C)OC(=O)CCl)nn(C)c3c2)cc1Cl [QW-750]", 1.6),
]

-- ask Name the reported IC50 value associated with the molecule Cn1nc(-n2cc(C(C)(C)COC(=O)CCl)nn2)c2ccc(-c3ccc4c(c3)OCO4)cc21 [QW-696]
-- reply 2.9

-- ask Name the reported IC50 value associated with the molecule Cn1nc(C(=O)NC(C)(C)C(C)(C)OC(=O)CCl)c2ccc(-c3ccc(OC(C)(C)C)cc3)cc21 [QW-770]
-- reply 1

-- ask Name the reported IC50 value associated with the molecule Cn1nc(C(=O)NC(C)(C)COC(=O)CCl)c2ccc(-c3ccc(OC(F)(F)F)c(Cl)c3)cc21 [QW-672]
-- reply 2.4

-- ask Name the reported IC50 value associated with the molecule COc1c(Cl)cc(-c2ccc3c(C(=O)NC(C)(C)C(C)(C)OC(=O)CCl)nn(C)c3c2)cc1C(F)(F)F [QW-813]
-- reply 2.1

* * *

Molecular target: GPX4 (Homo sapiens, UniProt P36969)
Assay: GPX4 activity assay in cell lysates (NADPH-coupled)
Type: biochemical
Design: endogenous in cells; host or cells: A-673 cell lysate
Conditions: 2.5 μM
measured-endpoint: GPX4% inhibition at 2.5 μM (%)
Give just the number in %; leave the unit off.

# compound, measured-result
data = [
    ("COc1c(F)cc(-c2ccc3c(-n4cc(C(C)(C)COC(=O)CCl)nn4)nn(C)c3c2)cc1Cl", 58.1),
]

-- ask Name the reported GPX4% inhibition at 2.5 μM value associated with the compound CCOc1ccc(-c2ccc3c(-n4cc(C(C)(C)COC(=O)CCl)nn4)nn(C)c3c2)cc1Cl
-- reply 31.0

-- ask Name the reported GPX4% inhibition at 2.5 μM value associated with the compound Cn1nc(-n2cc(C(C)(C)COC(=O)CCl)nn2)c2ccc(-c3ccc(N4CCOCC4)c(Cl)c3)cc21
-- reply 57.3

-- ask Name the reported GPX4% inhibition at 2.5 μM value associated with the compound COc1ccc(-c2ccc3c(-c4nnc(C(C)(OC(=O)CCl)C(F)(F)F)o4)nn(C)c3c2)cc1Cl (stereo not drawn)
-- reply 2.4

-- ask Name the reported GPX4% inhibition at 2.5 μM value associated with the compound Cn1nc(C(=O)N2CCC(OC(=O)CCl)C2(C)C)c2ccc(-c3ccc(N4CCOCC4)c(Cl)c3)cc21 (stereo not drawn)
-- reply 30.5

-- ask Name the reported GPX4% inhibition at 2.5 μM value associated with the compound CC(C)Oc1c(Cl)cc(-c2ccc3c(C(=O)NC(C)(C)C(C)(C)OC(=O)CCl)nn(C)c3c2)cc1Cl
-- reply 36.3

-- ask Name the reported GPX4% inhibition at 2.5 μM value associated with the compound CC(C)Oc1ncc(-c2ccc3c(C(=O)NC(C)(C)COC(=O)CCl)nn(C)c3c2)cn1
-- reply 86.4

-- ask Name the reported GPX4% inhibition at 2.5 μM value associated with the compound Cn1nc(C(=O)NC(C)(C)COC(=O)CCl)c2ccc(-c3ccc4c(c3)OCO4)cc21
-- reply 71.5

-- ask Name the reported GPX4% inhibition at 2.5 μM value associated with the compound CN(C)CCCOc1ccc(-c2ccc3c(C(=O)NC(C)(C)COC(=O)CCl)nn(C)c3c2)cc1
-- reply 46.9

-- ask Name the reported GPX4% inhibition at 2.5 μM value associated with the compound COc1ccc(-c2ccc3c(C(=O)NC(COC(=O)CCl)C(F)(F)F)nn(C)c3c2)cc1Cl (stereo not drawn)
-- reply 35.8

-- ask Name the reported GPX4% inhibition at 2.5 μM value associated with the compound COc1ccc(-c2ccc3c(C(=O)NC(C)(C)C(C)(C)OC(=O)CCl)nn(C)c3c2)cc1Cl
-- reply 98.4

-- ask Name the reported GPX4% inhibition at 2.5 μM value associated with the compound COc1ccc(-c2ccc3c(C(=O)NCC(C)(C)OC(=O)CCl)nn(C)c3c2)cc1Br
-- reply −172.4

* * *

Molecular target: GPX4 (Homo sapiens, UniProt P36969)
Assay: GPX4 activity assay in cell lysates (NADPH-coupled)
Format: biochemical
Design: endogenous in cells; host or cells: A-673 cell lysate
Conditions: 5 μM
// NO strictly below 60% in GPX4% inhibition at 5 μM; YES otherwise

# compound, discrete-label
rows = [
    ("CC(C)Oc1ccc(-c2ccc3c(C(=O)NC(C)(C)COC(=O)CCl)nn(C)c3c2)cc1 [QW-506]", "YES"),
    ("COc1ccc(-c2ccc3c(C(=O)NC(C)(C)COC(=O)CCl)nn(C)c3c2)cc1C [QW-488]", "YES"),
    ("Cn1nc(C(=O)NC(C)(C)COC(=O)CCl)c2ccc(-c3cnc4ccccc4c3)cc21 [QW-542]", "YES"),
    ("Cn1nc(C(=O)NC(C)(C)COC(=O)CCl)c2ccc(-c3ccc(CN4CCOCC4)cc3)cc21 [QW-539]", "NO"),
    ("Cn1nc(C(=O)NC(C)(C)COC(=O)CCl)c2ccc(-c3cc4ccccc4s3)cc21 [QW-470]", "YES"),
]

-- ask Evaluate COc1cc(-c2ccc3c(C(=O)NC(C)(C)COC(=O)CCl)nn(C)c3c2)ccc1Cl [QW-556] : GPX4% inhibition at 5 μM at minimum 60%?
-- reply YES

-- ask Evaluate CC(C)Oc1ccc(Cl)cc1-c1ccc2c(C(=O)NC(C)(C)COC(=O)CCl)nn(C)c2c1 [QW-495] : GPX4% inhibition at 5 μM at minimum 60%?
-- reply NO

-- ask Evaluate Cn1nc(C(=O)NC(C)(C)COC(=O)CCl)c2ccc(-c3ccc(C(F)(F)F)cc3)cc21 [QW-502] : GPX4% inhibition at 5 μM at minimum 60%?
-- reply NO

-- ask Evaluate Cn1nc(C(=O)NC(C)(C)COC(=O)CCl)c2ccc(-c3ccc(Cl)cc3)cc21 [QW-494] : GPX4% inhibition at 5 μM at minimum 60%?
-- reply YES

-- ask Evaluate Cn1nc(C(=O)NC(C)(C)COC(=O)CCl)c2ccc(-c3cccc4[nH]ccc34)cc21 [QW-467] : GPX4% inhibition at 5 μM at minimum 60%?
-- reply NO

-- ask Evaluate COC(=O)C=CC(=O)OCC(C)(C)NC(=O)c1nn(C)c2cc(-c3ccc(OC)c(Cl)c3)ccc12 [QW-646] : GPX4% inhibition at 5 μM at minimum 60%?
-- reply NO

-- ask Evaluate Cn1nc(C(=O)NC(C)(C)COC(=O)CCl)c2ccc(-c3cccc(F)c3)cc21 [QW-493] : GPX4% inhibition at 5 μM at minimum 60%?
-- reply YES
